- SYSTEM NAME: T1, IL10Rα/IL2Rγ receptor (human, UniProt Q13651 22-578; P31785 23-369)
- T1 sequence (looked up) 1: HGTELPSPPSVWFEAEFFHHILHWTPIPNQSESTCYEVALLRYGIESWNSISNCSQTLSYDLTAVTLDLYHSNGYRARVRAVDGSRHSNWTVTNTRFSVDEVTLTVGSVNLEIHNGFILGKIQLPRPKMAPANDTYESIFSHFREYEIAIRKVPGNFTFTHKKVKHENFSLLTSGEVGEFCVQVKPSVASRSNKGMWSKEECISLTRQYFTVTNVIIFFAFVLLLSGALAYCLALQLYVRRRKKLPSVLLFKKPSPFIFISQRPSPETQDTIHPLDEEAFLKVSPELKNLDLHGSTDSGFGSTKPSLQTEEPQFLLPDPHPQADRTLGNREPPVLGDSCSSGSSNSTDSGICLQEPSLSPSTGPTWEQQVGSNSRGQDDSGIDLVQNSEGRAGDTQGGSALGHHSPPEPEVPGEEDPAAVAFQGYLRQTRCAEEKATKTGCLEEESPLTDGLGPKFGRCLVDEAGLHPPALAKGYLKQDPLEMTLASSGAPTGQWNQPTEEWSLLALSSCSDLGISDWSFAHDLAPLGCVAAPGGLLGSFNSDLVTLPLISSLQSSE
- T1 sequence (looked up) 2: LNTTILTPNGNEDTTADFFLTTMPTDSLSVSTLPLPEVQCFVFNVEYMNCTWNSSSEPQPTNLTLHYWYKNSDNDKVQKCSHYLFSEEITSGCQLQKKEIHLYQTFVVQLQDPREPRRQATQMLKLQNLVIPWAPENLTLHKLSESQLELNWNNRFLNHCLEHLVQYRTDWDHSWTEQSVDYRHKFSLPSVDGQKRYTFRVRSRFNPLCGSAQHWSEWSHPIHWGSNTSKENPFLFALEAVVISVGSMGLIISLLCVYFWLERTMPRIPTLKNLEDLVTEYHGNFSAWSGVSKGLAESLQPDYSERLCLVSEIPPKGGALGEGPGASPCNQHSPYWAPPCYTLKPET
- METHOD NOTES: cell-based or functional assay
MEASURED METRIC: pSTAT3 MFI, CD4 T cells, 1 nM (unstimulated 1887) (MFI)

- BINDER: "DR395(DR229-DR239) (bispecific antibody) QVQLQESGGGLVQPGGSLRLSCTASGFSFSSYPMTWARQAPGKGLEWVSTIASDGGSTAYAASVEGRFTISRDNAKSTLYLQLNSLKTEDTAMYYCTKGYGDGTPAPGQGTQVTVSSGGGSQVQLQESGGGSVQAGGSLRLSCTVSGYTYSSNCMGWFRQAPGKEREGVATIYTGGGNTYYADSVKGRFTISQDNAKNTVYLQMNNLKPEDTAMYYCAAEPLSRVYGGSCPTPTFDYWGQGTQVTVSSASHHHHHH"
  OBSERVED VALUE: 4570
- BINDER: "DR441(DR236-DR231) (bispecific antibody) QVQLQESGGGSVQAGGSLRLSCAASRFTYSSYCMGWFRQAPGKEREGVASIDSDGSTSYTDSVKGRFTISKDNAKNTLYLQMNSLKPEDTAMYYCALDLMSTVVPGFCGFLLSAGMDYWGKGTQVTVSSGGGSQVQLQESGGGSVQAGGSLRLSCTASGFTFDDREMNWYRQAPGNECELVSTISSDGSTYYADSVKGRFTISQDNAKNTVYLQMDSVKPEDTAVYYCAADFMIAIQAPGAGCWGQGTQVTVSSASHHHHHH"
  OBSERVED VALUE: 4560
- BINDER: "DR465(DR240-DR231) (bispecific antibody) QVQLQESGGGSVQAGGSLRLSCGASGYTYSSYCMGWFRQVPGKEREGVAVIDSDGSTSYADSVKGRFTISKDNGKNTLYLQMNSLKPEDTAMYYCAADLGHYRPPCGVLYLGMDYWGKGTQVTVSSGGGSQVQLQESGGGSVQAGGSLRLSCTASGFTFDDREMNWYRQAPGNECELVSTISSDGSTYYADSVKGRFTISQDNAKNTVYLQMDSVKPEDTAVYYCAADFMIAIQAPGAGCWGQGTQVTVSSASHHHHHH"
  OBSERVED VALUE: 4730
